- assay-method-text: solvent given as SMILES
- experimental-setup: in CCOC(C)=O
Measured fluorescence lifetime by item
Give the value in ns but do not write ns after it.

Please review the following examples before continuing.
Cc1ccccc1C1=C2C=c3c(oc4ccc(C(C)(C)C)cc34)=[N+]2[B-](F)(F)n2c1cc1c3cc(C(C)(C)C)ccc3oc12
4.28
NS(=O)(=O)c1ccc(N2N=C(c3ccc(O)cc3)CC2c2ccc(Cl)cc2)cc1 (configuration not stated)
2.34
COC(=O)C(Cc1ccc2oc(-c3ccc(-n4c5ccccc5c5ccccc54)cc3)nc2c1)NC(=O)OC(C)(C)C (configuration not stated)
3.08

Record CCC1=C(C)C2=Cc3c(I)c(I)cn3[B-](F)(F)[N+]2=C1C . Reported fluorescence lifetime: 0.116

Entry under test: CCC1=C(C)C2=C(C)c3cccn3[B-](F)(F)[N+]2=C1C . Its fluorescence lifetime was 5.57

Record COc1ccc(C#Cc2ccc(C#N)cc2)cc1OC , field fluorescence lifetime: 1

GET /value?item= Cc1ccc2c(c1)C(=O)c1ccncc1-2 &field=fluorescence lifetime returns 7.4

* * *

- assay-method-text: solvent given as SMILES
- experimental-setup: in ClCCl
Recorded fluorescence lifetime, one value per entry.
Response body: numeric value in ns, unit text excluded.

Study these solved cases before continuing.
CCOC(=O)c1ccc(C2=Cc3cc4ccccc4cc3P2(=O)c2ccccc2)cc1 (configuration not stated)
2.8
COc1cc(OC)cc(C2=[O+][B-](F)(F)OC(c3ccccc3)=C2)c1
6.87
CCn1c2sccc2c2c3nsnc3c3c4ccsc4n(CC)c3c21
14.6
c1ccc(C2=Nc3cccc4[n+]3[B-](c3ccccc3)(N2)NC(c2ccccc2)=N4)cc1
2.5

Field fluorescence lifetime (entry CCCCn1c(-c2ccc(-c3nnc(-c4ccccc4)o3)cc2)nc2c3ccccc3c3ccccc3c21 ) reads 1.84

Input FC(F)(F)c1ccc(-c2ccc(-c3cc(-c4ccccn4)nc(-c4ccccn4)c3)cc2)cc1 . Output fluorescence lifetime: 1.48

The compound COc1ccc(C(=O)NN2C3=C(CC4=C2CCCC4=O)C(=O)CCC3)cc1 showed fluorescence lifetime equal to 8.3

* * *

- assay-method-text: solvent given as SMILES
- experimental-setup: in C1CCCCC1
The threshold is inclusive: fluorescence lifetime of exactly 5 ns counts as Yes; values below receive No.

Consider the worked cases shown below.
CN(C)c1ccc2c(c1)C(=O)c1ccccc1-2
No
O=C1c2ccccc2-c2ccc(N3CCN(c4ccccc4)CC3)c3cccc1c23
Yes
COC(=O)c1ccc(C#Cc2ccccc2)cc1
No
N#Cc1cccc(N)c1
No
CCC1=C(C)C2=C(C)c3cccn3[B-](F)(F)[N+]2=C1C
Yes

// next entry
q: I'd appreciate it if you could say whether Cc1cc(C)c(B(c2c(C)cc(C)cc2C)c2cc3cc(N(C)C)c4ccccc4c3c3c2ccc2ccccc23)c(C)c1 has fluorescence lifetime at least equal to 5 ns.
a: Yes

* * *

Listed below: fluorescence lifetime values for each entry.
- assay-method-text: solvent given as SMILES
- experimental-setup: in Cc1ccccc1
Respond with the bare value in ns.

Query c1ccc2c(c1)Oc1ccccc1N2c1ccc(-c2nnc(-c3ccc(N4c5ccccc5Oc5ccccc54)cc3)o2)cc1 yields fluorescence lifetime of 21.2

* * *

- assay-method-text: solvent given as SMILES
- experimental-setup: in Cc1ccccc1
// fluorescence lifetime lookup, one value per entry
Output spec: scalar in ns, unitless text.

Known results for molecules:
CC(C)c1cc(C(C)C)c(B2c3ccccc3Oc3cc(N4c5ccccc5C5(c6ccccc6-c6ccccc65)c5ccccc54)ccc32)c(C(C)C)c1
28
c1ccc2c(c1)CCc1ccccc1N2c1c2ccccc2cc2ccccc12
41
N#Cc1cc(-n2c3ccccc3c3ccccc32)c(-n2c3ccccc3c3ccccc32)cc1C#N
28.5
CCOC(=O)CN1C(=O)C2=C(c3ccccc3)N(CC(=O)OCC)C(=O)C2=C1c1ccccc1
5.93
COc1ccc(/C=C/C2=CC(/C=C/c3ccc(OC)cc3)=[O+][B-](OC(C)=O)(OC(C)=O)O2)cc1
2.45

Short answer for COc1ccc(-c2nnc(-c3cc(-c4nnc(-c5ccc(OC)cc5)o4)c(-n4c5ccccc5c5ccccc54)cc3-n3c4ccccc4c4ccccc43)o2)cc1 : fluorescence lifetime was 5.1

Item: O=Cc1ccc2ccc3cccc4ccc1c2c34 | fluorescence lifetime: 15.3

Reference source for all entries: the Deep4Chem optical property database
